- Tested on: Saccharomyces cerevisiae
- experiment.notes: protein stability index of tFT-peptide fusion (C-terminal peptide) (PSI (0-1 scale)); higher = more stable (slower turnover)
- condition.label: genetic background: wild type; temperature: 30 C
Each item that follows carries a reported protein stability index.
Answer with a bare number; do not write a unit.

residue_sequence=LLLVCYSTFIVA observed_property="protein stability index" obs_value=0.313
residue_sequence=PFFSSRLFTLSL observed_property="protein stability index" obs_value=0.731
residue_sequence=SFACVYVPPALF observed_property="protein stability index" obs_value=0.712
residue_sequence=RKASQEQYHQRH observed_property="protein stability index" obs_value=0.648
residue_sequence=TLHEDVMFYSRM observed_property="protein stability index" obs_value=0.684
residue_sequence=VGGVRGAGCVRG observed_property="protein stability index" obs_value=0.705
residue_sequence=VQKITRLVDKVV observed_property="protein stability index" obs_value=0.813
residue_sequence=PAPPPLLPPPPP observed_property="protein stability index" obs_value=0.597

With those in mind, consider the next sequence.
Query string: What value of protein stability index has been reported for the following sequence? TGREWCFERGCW
Result string: 0.842

----------
- Tested on: Saccharomyces cerevisiae
- experiment.notes: protein stability index of tFT-peptide fusion (C-terminal peptide) (PSI (0-1 scale)); higher = more stable (slower turnover)
- condition.label: genetic background: wild type; temperature: 30 C
protein stability index of 0.6 or higher: true. Under 0.6: false.

Example cases with answers are listed next.
residue_sequence=PLSSLSLPTPPT target_of_assay="Saccharomyces cerevisiae" assigned_label=true
residue_sequence=AREGSRGVDVGV target_of_assay="Saccharomyces cerevisiae" assigned_label=true

Now for another entry.
Query string: Could you please find out whether RPNTKKHKIGER has protein stability index that meets 0.6 or exceeds it?
Result string: true

----------
Each item that follows carries a reported protein stability index.
- System: Saccharomyces cerevisiae
- experiment.notes: protein stability index of tFT-peptide fusion in deletion strain of DAS1 (PSI (0-1 scale)); higher = more stable (slower turnover)
Answer with a bare number; do not write a unit.

Observe how each entry below is paired with its result.
residue_sequence=LDKRNHLIKLLN target_of_assay="Saccharomyces cerevisiae" obs_value=0.599
residue_sequence=FSMRWTHRYWVN target_of_assay="Saccharomyces cerevisiae" obs_value=0.561
residue_sequence=VRGAVGGWRHVG target_of_assay="Saccharomyces cerevisiae" obs_value=0.691
residue_sequence=LVVYLSIVACIN target_of_assay="Saccharomyces cerevisiae" obs_value=0.0849
residue_sequence=KKHKKGQKQKIS target_of_assay="Saccharomyces cerevisiae" obs_value=0.607

Query string: What value of protein stability index has been reported for the following sequence? FSMRWTFRYWVD
Result string: 0.467

----------
Each item that follows carries a reported protein stability index.
- System: Saccharomyces cerevisiae
- experiment.notes: protein stability index of tFT-peptide fusion (C-terminal peptide) (PSI (0-1 scale)); higher = more stable (slower turnover)
- condition.label: genetic background: wild type; temperature: 30 C
Answer with a bare number; do not write a unit.

residue_sequence=LYLGCVLFVLFR obs_value=0.234
residue_sequence=VCCSSVSLLVFA obs_value=0.374
residue_sequence=VWFLLFVVWCGS obs_value=0.309
residue_sequence=MCRMYELYVTSS obs_value=0.467
residue_sequence=IVCGMGDKGMHE obs_value=0.698
residue_sequence=KKRRTKKENNNI obs_value=0.687
residue_sequence=LILIVVVAGSVG obs_value=0.269
residue_sequence=LPPSPPLSPITS obs_value=0.55

Query string: What value of protein stability index has been reported for the following sequence? VCGREVKCGEGY
Result string: 0.691

Query string: What value of protein stability index has been reported for the following sequence? PSSFIRFLLCCF
Result string: 0.644

Query string: What value of protein stability index has been reported for the following sequence? VAKFYQVLMSEG
Result string: 0.684

Query string: What value of protein stability index has been reported for the following sequence? DALGRSNGPPRV
Result string: 0.673

Query string: What value of protein stability index has been reported for the following sequence? SPPPFFSPSLPP
Result string: 0.65

Query string: What value of protein stability index has been reported for the following sequence? GLAYGICYRVVL
Result string: 0.637

Query string: What value of protein stability index has been reported for the following sequence? VHTCVSYTNCMD
Result string: 0.703

Query string: What value of protein stability index has been reported for the following sequence? AGFTATTPIRGV
Result string: 0.715

Query string: What value of protein stability index has been reported for the following sequence? GAKHDSSRQSLR
Result string: 0.746

Query string: What value of protein stability index has been reported for the following sequence? ALKVMYMHTGKG
Result string: 0.62

----------
- System: Saccharomyces cerevisiae
- experiment.notes: protein stability index of tFT-peptide fusion (C-terminal peptide) (PSI (0-1 scale)); higher = more stable (slower turnover)
- condition.label: genetic background: cdc34-1; temperature: 37 C
observed.property: protein stability index

Observe how each entry below is paired with its result.
residue_sequence=YYKGGYLYLRLS obs_value=0.398
residue_sequence=FCVVFFLSLVFL obs_value=0.457
residue_sequence=WFSMSRLWVFYS obs_value=0.415

Query string: What value of protein stability index has been reported for the following sequence? AGVRCPLFWLVC
Result string: 0.461

Query string: What value of protein stability index has been reported for the following sequence? GSLLNLSLRWLV
Result string: 0.626

Query string: What value of protein stability index has been reported for the following sequence? CLCFFMSILWWV
Result string: 0.474

----------
- System: Saccharomyces cerevisiae
- experiment.notes: protein stability index of tFT-peptide fusion (C-terminal peptide) (PSI (0-1 scale)); higher = more stable (slower turnover)
- condition.label: genetic background: wild type; temperature: 30 C
observed.property: protein stability index
Answer with a bare number; do not write a unit.

residue_sequence=LIGASFGLYPVS obs_value=0.693
residue_sequence=RTRRGRIGEIGP obs_value=0.703

With those in mind, consider the next sequence.
Query string: What value of protein stability index has been reported for the following sequence? GGMDEVFRAHGP
Result string: 0.712

----------
Each item that follows carries a reported protein stability index.
- System: Saccharomyces cerevisiae
- experiment.notes: protein stability index of tFT-peptide fusion (C-terminal peptide) (PSI (0-1 scale)); higher = more stable (slower turnover)
- condition.label: genetic background: wild type; temperature: 30 C
Answer with a bare number; do not write a unit.

Observe how each entry below is paired with its result.
residue_sequence=SLLELSPPRSPP obs_value=0.681
residue_sequence=PLGVPPPAPSSP obs_value=0.694
residue_sequence=VGCGVGGIGVLV obs_value=0.712
residue_sequence=SVALSSPSRYCS obs_value=0.714

With those in mind, consider the next sequence.
Query string: What value of protein stability index has been reported for the following sequence? CCCELNTEIVQT
Result string: 0.682

----------
Each item that follows carries a reported protein stability index.
- Test system: Saccharomyces cerevisiae
- experiment.notes: protein stability index of tFT-peptide fusion (C-terminal peptide) (PSI (0-1 scale)); higher = more stable (slower turnover)
- condition.label: genetic background: das1 deletion; temperature: 37 C
Answer with a bare number; do not write a unit.

residue_sequence=MCRMYELYVTSS observed_property="protein stability index" obs_value=0.588
residue_sequence=TLLSSIFLCLVL observed_property="protein stability index" obs_value=0.613
residue_sequence=VCGYGFAVPCYT observed_property="protein stability index" obs_value=0.583

With those in mind, consider the next sequence.
Query string: What value of protein stability index has been reported for the following sequence? SIPFWPVLFFLL
Result string: 0.609

----------
Each item that follows carries a reported protein stability index.
- System: Saccharomyces cerevisiae
- experiment.notes: protein stability index of tFT-peptide fusion (C-terminal peptide) (PSI (0-1 scale)); higher = more stable (slower turnover)
- condition.label: genetic background: das1 deletion; temperature: 37 C
Answer with a bare number; do not write a unit.

residue_sequence=KLCVGLVLSFVC observed_property="protein stability index" obs_value=0.535
residue_sequence=WVSFYLLFFFSF observed_property="protein stability index" obs_value=0.539
residue_sequence=EWGLGEIVVKVA observed_property="protein stability index" obs_value=0.684
residue_sequence=LPLLLFYLPIIW observed_property="protein stability index" obs_value=0.521

Query string: What value of protein stability index has been reported for the following sequence? VYCCVRSLRVAI
Result string: 0.635

----------
- Test system: Saccharomyces cerevisiae
- experiment.notes: protein stability index of tFT-peptide fusion (C-terminal peptide) (PSI (0-1 scale)); higher = more stable (slower turnover)
- condition.label: genetic background: wild type; temperature: 30 C
observed.property: protein stability index
Answer with a bare number; do not write a unit.

residue_sequence=CVGLYCLFVLLG obs_value=0.248
residue_sequence=SPPPNPRRPVPL obs_value=0.692

With those in mind, consider the next sequence.
Query string: Observed protein stability index on Saccharomyces cerevisiae for RQDRTFEIQGWE , please.
Result string: 0.697

----------
- Test system: Saccharomyces cerevisiae
- experiment.notes: protein stability index of tFT-peptide fusion (C-terminal peptide) (PSI (0-1 scale)); higher = more stable (slower turnover)
- condition.label: genetic background: wild type; temperature: 30 C
observed.property: protein stability index
Answer with a bare number; do not write a unit.

residue_sequence=APVLPKPSPFSF target_of_assay="Saccharomyces cerevisiae" obs_value=0.629
residue_sequence=YNFLQSGADPNR target_of_assay="Saccharomyces cerevisiae" obs_value=0.721
residue_sequence=ERSDRLWEVSKG target_of_assay="Saccharomyces cerevisiae" obs_value=0.685
residue_sequence=TLPEVELTRQPI target_of_assay="Saccharomyces cerevisiae" obs_value=0.747
residue_sequence=LVLVSFWWSGPM target_of_assay="Saccharomyces cerevisiae" obs_value=0.526
residue_sequence=TPSPAPPTPFTP target_of_assay="Saccharomyces cerevisiae" obs_value=0.659
residue_sequence=FSWDRIKQCSSV target_of_assay="Saccharomyces cerevisiae" obs_value=0.709
residue_sequence=FVFGSVLPGPTC target_of_assay="Saccharomyces cerevisiae" obs_value=0.692

Query string: What value of protein stability index has been reported for the following sequence? ITDCAFIPLTVD
Result string: 0.764

Query string: What value of protein stability index has been reported for the following sequence? PPRPLPPSLPPP
Result string: 0.695
